Data origin: the supplement of paper PMC10567573

test: protein stability index of a GFP-peptide fusion (GPS, HEK-293T) (PSI 1-6); higher = more stable; settings: treatment: DMSO; c terminus: a fixed tail appended;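 note: 24-mer peptide tiles fused after GFP, lentivirally expressed, FACS-sorted into six equal bins by GFP/DsRed ratio, decoded by Illumina sequencing, PSI is the read-weighted mean bin number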
Give measured protein stability index for each item. Keep answers brief.
Lab note: jot down the number only; don't add units.

The recorded protein stability index for entry LRPAKRELRGAEPGRPARLDQLLD [SPSB4] equals 4.12

The recorded protein stability index for entry ALLESSLRQAQQNMDPKAAEEEEE [CCND1] equals 5.28

The recorded protein stability index for entry DGVEVDDSYCDALTRPEPVHEFCA [ADAMTSL2] equals 4.57

The recorded protein stability index for entry ENQRLFEMLGRKCLTLATAVVQLY [WAS] equals 2.26

The recorded protein stability index for entry LGKILSVELGKQKKKYMPYNHQHK [FADS1] equals 2.55

The recorded protein stability index for entry CFVLGFFYPVMLILFLVIGGMLNF [SOAT2] equals 3.27

The recorded protein stability index for entry LQAQKEELQSLMHQPKGLEEENAQ [PBXIP1] equals 5.64

The recorded protein stability index for entry FARNGALSTHNWTYWQCGQYLGVG [RSAD1] equals 2.63

The recorded protein stability index for entry LPKVLQKYWCVTATRVAPERLFGS [ZBED1] equals 2.47

The recorded protein stability index for entry KAGLENSLAETECRYATQLQQIQG [KRT15] equals 3.92

The recorded protein stability index for entry KPKMNYEKLSRGLRYYYDKNIIHK [ETS2] equals 2.48

The recorded protein stability index for entry VSTGSTDNSPTSNSLEGGTDATAF [ADAMTSL2] equals 4.97

The recorded protein stability index for entry SIWAQNQVENWSAFAPDFKELDEN [RBBP5] equals 4.26

The recorded protein stability index for entry CRYPYEYEGGHIKGAVNLHMEEEV [CDC25A] equals 3.8

The recorded protein stability index for entry TIKSHLKSFSMANGMNAVMMHGRS [RAB40C] equals 2.54

The recorded protein stability index for entry PTCPVCKDRASPADLRTNHTLNNL [TRIM35] equals 3.62

The recorded protein stability index for entry PGAPPGRDLASVPPELTASRQSFR [DVL3] equals 4.7

The recorded protein stability index for entry RQFEFSVDSFQIILDSLLFFYDCS [TENT5C] equals 3.06

The recorded protein stability index for entry GNGRPGRPSQYRPDGLRSGDGVPP [LCOR] equals 4.59

The recorded protein stability index for entry NSSVWNSHLQTNYSKTFQRSNVDF [NECAB1] equals 2.65

The recorded protein stability index for entry LAGMANHGSPQLGEGMFQHQTSVA [TBX5] equals 3.83

The recorded protein stability index for entry LVDKETDKRHVEQKIQFKRETASL [PDZK1] equals 4.72

The recorded protein stability index for entry EFDDGSGSVLRIQPLRTPRDEAIY [PTPRD] equals 3.47

The recorded protein stability index for entry PGAEEAQDPEGKGEQEHSQQKEEE [CHGA] equals 5.65

The recorded protein stability index for entry LFPNAKKEHVPTWLQNTHVYSWPK [TRAF3IP2] equals 2.8

The recorded protein stability index for entry PDCGKAFVSRYKLMRHMATHSPQK [PLAGL1] equals 2.88

The recorded protein stability index for entry DDEEFEYRHVMLPKDIAKLVPKTH [CKS1B] equals 4.38
